Hello, the source for this data is ChEMBL document CHEMBL1961873, in case you need it.

This section presents compounds with their documented inhibition values.
- TARGET OF ASSAY: RAC-gamma serine/threonine-protein kinase (Homo sapiens) (UniProt Q9Y243)
- Sequence (Q9Y243 whole entry): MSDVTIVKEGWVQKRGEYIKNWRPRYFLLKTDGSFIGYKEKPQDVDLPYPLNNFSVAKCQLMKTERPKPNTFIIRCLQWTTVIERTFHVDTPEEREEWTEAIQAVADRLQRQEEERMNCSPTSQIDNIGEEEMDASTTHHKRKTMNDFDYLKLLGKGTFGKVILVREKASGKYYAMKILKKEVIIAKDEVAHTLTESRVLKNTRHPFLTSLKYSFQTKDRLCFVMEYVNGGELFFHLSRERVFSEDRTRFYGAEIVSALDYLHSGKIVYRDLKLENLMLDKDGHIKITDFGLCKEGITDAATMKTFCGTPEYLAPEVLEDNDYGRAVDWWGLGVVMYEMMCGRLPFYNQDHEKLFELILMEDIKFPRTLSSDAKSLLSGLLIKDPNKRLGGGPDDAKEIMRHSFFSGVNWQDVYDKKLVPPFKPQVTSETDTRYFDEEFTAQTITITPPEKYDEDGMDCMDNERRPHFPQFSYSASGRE
- CONDITION DETAILS: at 1 µM
- Description: GSK_PKIS: AKT3 mean inhibition at 1 uM [Nanosyn]
Entry rule: numbers only, all in %.

Reference set (3 entries):
{"COMPOUND": "CS(=O)(=O)Nc1ccc(N/C=C2\\C(=O)Nc3ccccc32)cc1", "inhibition [%]": 1.91}
{"COMPOUND": "CC1=C(C(=O)Nc2ccc3[nH]ncc3c2)C(c2ccc(Cl)c(Cl)c2)CC(=O)N1 (stereo unspecified)", "inhibition [%]": 2.81}
{"COMPOUND": "Fc1cccc(COc2ccc(Nc3ncnc4sc(-c5cccs5)cc34)cc2Cl)c1", "inhibition [%]": 1.25}

### Prompt Given Nc1ncnc2occ(-c3ccc(NC(=O)Nc4cccc(C(F)(F)F)c4)cc3)c12 , state its recorded inhibition.
### Response 2.7

### Prompt Given COc1cc2ncn(-c3cc(O[C@H](C)c4ccccc4Cl)c(C(N)=O)s3)c2cc1OC , state its recorded inhibition.
### Response 1.74

### Prompt Given [O-][S+]1CCN(Cc2ccc(-c3ccc4ncnc(Nc5ccc(OCc6ccccc6)c(F)c5)c4c3)o2)CC1 , state its recorded inhibition.
### Response 1.21

### Prompt Given CCCN1CCC=C(c2ccc(Nc3nc(Nc4ccccc4C(N)=O)c4cc[nH]c4n3)c(C)c2)C1 , state its recorded inhibition.
### Response 5.51

### Prompt Given CCc1cccc(NC(=O)Nc2ccc(Oc3ccc4nc(NC(=O)OC)[nH]c4c3)cc2)c1 , state its recorded inhibition.
### Response -0.71

### Prompt Given COc1cc2ncn(-c3cc(O[C@@H](C)c4ccccc4Cl)c(C(N)=O)s3)c2cc1OC , state its recorded inhibition.
### Response 1.32

### Prompt Given COc1cc2c(cc1Nc1nc(N3CCc4ccccc43)c3cc[nH]c3n1)N(C(=O)CN(C)C)CC2 , state its recorded inhibition.
### Response 1.23

====

- TARGET OF ASSAY: Fibroblast growth factor receptor 4 (Homo sapiens);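 also: values are mean percent inhibition of FGFR4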
- CONDITION DETAILS: at 0.1 µM
QUANTITY KIND: inhibition (%)
Entry rule: numbers only, all in %.

{"COMPOUND": "NC(=O)c1ccc(-c2nc(-c3ccccn3)c(-c3ccc4c(c3)OCO4)[nH]2)cc1", "TARGET OF ASSAY": "Fibroblast growth factor receptor 4 (Homo sapiens)", "inhibition, %": 4.19}

### Prompt Given CCCN1CCC=C(c2ccc(Nc3nc(Nc4ccccc4C(N)=O)c4cc[nH]c4n3)c(C)c2)C1 , state its recorded inhibition.
### Response 3.01

### Prompt Given CCn1c(-c2nonc2N)nc2cncc(C(=O)N3CC[C@H](N)C3)c21 , state its recorded inhibition.
### Response -6.25

### Prompt Given Nc1nc(-c2ccccn2)c(-c2ccc3ncccc3n2)s1 , state its recorded inhibition.
### Response -1.61

====

- Tested on: Mast/stem cell growth factor receptor Kit (Homo sapiens), P10721 [V560G]
- Sequence (P10721 whole entry V560G): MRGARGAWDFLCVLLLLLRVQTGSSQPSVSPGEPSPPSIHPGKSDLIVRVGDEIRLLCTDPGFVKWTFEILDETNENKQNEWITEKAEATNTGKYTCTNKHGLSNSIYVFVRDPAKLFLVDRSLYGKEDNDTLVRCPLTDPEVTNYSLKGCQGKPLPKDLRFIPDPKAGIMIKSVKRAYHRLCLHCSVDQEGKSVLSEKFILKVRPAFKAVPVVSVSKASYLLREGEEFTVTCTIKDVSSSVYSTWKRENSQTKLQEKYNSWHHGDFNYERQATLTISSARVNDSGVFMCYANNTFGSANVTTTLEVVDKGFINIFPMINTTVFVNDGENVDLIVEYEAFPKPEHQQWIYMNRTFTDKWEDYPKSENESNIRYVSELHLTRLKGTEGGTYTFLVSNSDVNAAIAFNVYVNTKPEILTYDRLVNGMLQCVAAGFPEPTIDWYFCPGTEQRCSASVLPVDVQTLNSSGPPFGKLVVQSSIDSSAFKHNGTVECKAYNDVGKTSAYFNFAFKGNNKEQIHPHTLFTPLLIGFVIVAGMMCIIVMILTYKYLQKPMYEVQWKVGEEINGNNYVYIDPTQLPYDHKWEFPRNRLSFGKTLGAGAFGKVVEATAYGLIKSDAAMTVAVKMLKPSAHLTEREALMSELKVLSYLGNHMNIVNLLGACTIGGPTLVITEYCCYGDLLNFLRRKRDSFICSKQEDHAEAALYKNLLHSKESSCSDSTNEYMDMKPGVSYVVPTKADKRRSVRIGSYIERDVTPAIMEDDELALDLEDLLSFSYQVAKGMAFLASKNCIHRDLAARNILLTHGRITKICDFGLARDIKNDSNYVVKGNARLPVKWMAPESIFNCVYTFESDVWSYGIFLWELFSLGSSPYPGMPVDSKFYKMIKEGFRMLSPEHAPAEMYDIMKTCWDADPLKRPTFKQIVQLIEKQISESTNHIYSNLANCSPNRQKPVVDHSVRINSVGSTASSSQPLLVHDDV
- CONDITION DETAILS: at 1 µM
QUANTITY KIND: inhibition (%)
Entry rule: numbers only, all in %.

{"CPD SMILES": "[O-][S+]1CCN(Cc2ccc(-c3ccc4ncnc(Nc5ccc(OCc6ccccc6)c(F)c5)c4c3)o2)CC1", "TARGET OF ASSAY": "Mast/stem cell growth factor receptor Kit (Homo sapiens), P10721 [V560G]", "EXPERIMENTAL RESULT": -2.71}

### Prompt API: value(readout= inhibition, system= Mast/stem cell growth factor receptor Kit (Homo sapiens), P10721 [V560G], query= Nc1ncnc2occ(-c3ccc(NC(=O)Nc4cc(C(F)(F)F)cc(C(F)(F)F)c4)cc3)c12 )
### Response 82.2

### Prompt API: value(readout= inhibition, system= Mast/stem cell growth factor receptor Kit (Homo sapiens), P10721 [V560G], query= CC(C)=Cc1cccc2c1/C(=N/Nc1ccc(S(N)(=O)=O)cc1)C(=O)N2 )
### Response 10.1

### Prompt API: value(readout= inhibition, system= Mast/stem cell growth factor receptor Kit (Homo sapiens), P10721 [V560G], query= COc1cc2ncn(-c3cc(O[C@@H](C)c4ccccc4Cl)c(C(N)=O)s3)c2cc1OC )
### Response 3.09

====

This section presents compounds with their documented inhibition values.
- Tested on: Epidermal growth factor receptor (Homo sapiens), P00533 [L858R,T790M]
- Sequence (P00533 whole entry T790M/L858R, looked up): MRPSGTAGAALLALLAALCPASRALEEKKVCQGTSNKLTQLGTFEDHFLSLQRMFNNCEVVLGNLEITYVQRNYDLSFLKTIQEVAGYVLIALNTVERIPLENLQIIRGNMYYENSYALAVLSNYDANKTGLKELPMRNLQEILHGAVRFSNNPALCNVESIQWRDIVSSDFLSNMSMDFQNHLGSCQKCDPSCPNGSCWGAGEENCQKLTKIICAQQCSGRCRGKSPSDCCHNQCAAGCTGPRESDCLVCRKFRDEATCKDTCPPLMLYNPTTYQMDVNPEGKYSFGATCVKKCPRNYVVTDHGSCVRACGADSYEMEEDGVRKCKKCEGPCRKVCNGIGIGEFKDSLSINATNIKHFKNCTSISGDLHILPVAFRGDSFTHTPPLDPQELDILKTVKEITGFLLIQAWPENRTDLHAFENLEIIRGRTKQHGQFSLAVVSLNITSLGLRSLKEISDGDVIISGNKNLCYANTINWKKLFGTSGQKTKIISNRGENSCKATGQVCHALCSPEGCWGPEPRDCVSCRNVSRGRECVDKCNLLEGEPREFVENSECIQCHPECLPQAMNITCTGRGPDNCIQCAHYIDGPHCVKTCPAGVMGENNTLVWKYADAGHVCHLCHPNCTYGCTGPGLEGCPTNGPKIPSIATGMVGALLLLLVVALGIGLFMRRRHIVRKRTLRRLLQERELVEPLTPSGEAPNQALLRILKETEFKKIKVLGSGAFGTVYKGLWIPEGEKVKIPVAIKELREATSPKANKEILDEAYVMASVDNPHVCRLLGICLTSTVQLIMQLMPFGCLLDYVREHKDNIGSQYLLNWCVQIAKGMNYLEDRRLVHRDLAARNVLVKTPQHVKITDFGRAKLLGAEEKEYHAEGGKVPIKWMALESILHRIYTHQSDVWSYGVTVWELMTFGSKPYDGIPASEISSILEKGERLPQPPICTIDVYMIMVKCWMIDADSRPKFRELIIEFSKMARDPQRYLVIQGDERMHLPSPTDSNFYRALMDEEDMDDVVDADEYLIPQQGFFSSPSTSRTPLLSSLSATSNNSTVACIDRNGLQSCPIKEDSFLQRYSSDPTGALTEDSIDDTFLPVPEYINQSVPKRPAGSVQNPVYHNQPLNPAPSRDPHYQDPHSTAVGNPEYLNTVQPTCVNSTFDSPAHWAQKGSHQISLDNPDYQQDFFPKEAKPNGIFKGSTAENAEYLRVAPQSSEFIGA
- CONDITION DETAILS: at 1 µM
Entry rule: numbers only, all in %.

Reference set (10 entries):
{"COMPOUND": "COc1cc2c(cc1Nc1nc(N3CCc4ccccc43)c3cc[nH]c3n1)N(C(=O)CN(C)C)CC2", "inhibition / %": 9.23}
{"COMPOUND": "COc1ccc(-c2nn3ncccc3c2-c2ccnc(Nc3ccc(Cl)c(C(F)(F)F)c3)n2)cc1", "inhibition / %": 4.78}
{"COMPOUND": "CCn1c(-c2nonc2N)nc2cncc(C(=O)N3CC[C@H](N)C3)c21", "inhibition / %": 1.95}
{"COMPOUND": "O=C(Nc1n[nH]c2nc(-c3ccco3)c(Br)cc12)C1CC1", "inhibition / %": 0.25}
{"COMPOUND": "Cc1ccc(NC(=O)c2ccnc(N3CCCC3)c2)cc1-c1ccc(C(=O)NCC2CC2)cc1", "inhibition / %": 2.67}
{"COMPOUND": "CC1=C(C(=O)Nc2ccc3[nH]ncc3c2)C(c2ccc(F)cc2)NC(=O)N1 (stereo not given)", "inhibition / %": -1.39}
{"COMPOUND": "CNC(=O)c1cncc(/C=C/c2c(Cl)cccc2Cl)c1", "inhibition / %": 3.2}
{"COMPOUND": "COc1ccc(COc2ccc(Cc3cnc(N)nc3N)cc2OC)cc1", "inhibition / %": -1.75}
{"COMPOUND": "CCn1c(-c2nonc2N)nc2cncc(C(=O)N3CCNCC3)c21", "inhibition / %": 3.56}
{"COMPOUND": "CCCN1CCC(Oc2cc(Nc3nc(Nc4cccc(F)c4C(N)=O)c4cc[nH]c4n3)c(OC)cc2Cl)CC1", "inhibition / %": 2.79}

### Prompt Given O=C1NC(=O)C(N2CCc3ccccc32)=C1c1ccc(Cl)cc1 , state its recorded inhibition.
### Response 2.67

### Prompt Given NS(=O)(=O)c1cccc(-c2ccc3c(NC(=O)C4CC4)n[nH]c3c2)c1 , state its recorded inhibition.
### Response 3.22

### Prompt Given CN1CCC(C(=O)Nc2n[nH]c3nnc(-c4ccccc4)cc23)CC1 , state its recorded inhibition.
### Response 4.67

### Prompt Given Nc1ncnc2occ(-c3ccc(NC(=O)Nc4cc(C(F)(F)F)cc(C(F)(F)F)c4)cc3)c12 , state its recorded inhibition.
### Response 0.18

### Prompt Given COc1cc2ncn(-c3cc(OCc4ccccc4Cl)c(C(N)=O)s3)c2cc1OC , state its recorded inhibition.
### Response 1.19

====

This section presents compounds with their documented inhibition values.
- TARGET OF ASSAY: Serine/threonine-protein kinase Chk2 (Homo sapiens);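 also: reported value is the mean inhibition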
- CONDITION DETAILS: at 1 µM
Entry rule: numbers only, all in %.

{"CPD SMILES": "NC(=O)c1ccc(-c2nc(-c3ccccn3)c(-c3ccc4c(c3)OCO4)[nH]2)cc1", "EXPERIMENTAL RESULT": 1.89}

### Prompt Given Cc1nn(C)c2cc(N(C)c3ccnc(Nc4cccc(S(N)(=O)=O)c4)n3)ccc12 , state its recorded inhibition.
### Response 9.6

### Prompt Given CCn1c(-c2nonc2N)nc2cncc(C(=O)N3CC[C@H](N)C3)c21 , state its recorded inhibition.
### Response 1.86

### Prompt Given CS(=O)(=O)CCNCc1nc(-c2ccc3ncnc(Nc4ccc(F)c(Cl)c4)c3c2)cs1 , state its recorded inhibition.
### Response 1.15

====

- TARGET OF ASSAY: Tyrosine-protein kinase JAK1 (Homo sapiens)
- CONDITION DETAILS: at 0.1 µM
- Description: GSK_PKIS: JAK1 mean inhibition at 0.1 uM [Nanosyn]
This section presents compounds with their documented inhibition values.
Entry rule: numbers only, all in %.

Reference set (3 entries):
{"CPD SMILES": "NS(=O)(=O)c1ccc(N/N=C2\\C(=O)Nc3ccc(C(=O)NCCc4c[nH]cn4)cc32)cc1", "ENDPOINT UNIT": "%", "inhibition": 5.75}
{"CPD SMILES": "COc1ccc(-c2ccncc2)cc1C(N)=O", "ENDPOINT UNIT": "%", "inhibition": 0.28}
{"CPD SMILES": "Cc1nn(C)c2cc(N(C)c3ccnc(Nc4cccc(S(N)(=O)=O)c4)n3)ccc12", "ENDPOINT UNIT": "%", "inhibition": 12.3}

With those in mind, consider the next compound.
### Prompt Given Cc1ccc(C(=O)NC2CCCCC2)cc1-c1ccc(C(=O)NCC2CC2)cc1 , state its recorded inhibition.
### Response 9.94

====

- TARGET OF ASSAY: Serine/threonine-protein kinase Nek6 (Homo sapiens) (UniProt Q9HC98);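 also: values are mean inhibition of NEK6 from the GSK PKIS screen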
- Sequence (Q9HC98 whole entry): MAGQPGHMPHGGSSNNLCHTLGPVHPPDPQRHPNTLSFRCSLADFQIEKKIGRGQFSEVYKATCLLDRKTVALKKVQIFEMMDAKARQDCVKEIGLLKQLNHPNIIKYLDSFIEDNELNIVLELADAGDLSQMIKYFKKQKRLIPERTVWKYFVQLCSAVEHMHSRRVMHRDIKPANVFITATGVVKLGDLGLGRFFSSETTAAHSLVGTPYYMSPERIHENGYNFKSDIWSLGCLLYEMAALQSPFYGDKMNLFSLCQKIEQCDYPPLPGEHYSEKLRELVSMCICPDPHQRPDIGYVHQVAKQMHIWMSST
- CONDITION DETAILS: at 1 µM
QUANTITY KIND: inhibition (%)
Entry rule: numbers only, all in %.

### Prompt Given NS(=O)(=O)c1cccc(-c2ccc3c(NC(=O)C4CC4)n[nH]c3c2)c1 , state its recorded inhibition.
### Response -0.37
